- Tested target: UniProt O15379
- Sequence (O15379 whole entry): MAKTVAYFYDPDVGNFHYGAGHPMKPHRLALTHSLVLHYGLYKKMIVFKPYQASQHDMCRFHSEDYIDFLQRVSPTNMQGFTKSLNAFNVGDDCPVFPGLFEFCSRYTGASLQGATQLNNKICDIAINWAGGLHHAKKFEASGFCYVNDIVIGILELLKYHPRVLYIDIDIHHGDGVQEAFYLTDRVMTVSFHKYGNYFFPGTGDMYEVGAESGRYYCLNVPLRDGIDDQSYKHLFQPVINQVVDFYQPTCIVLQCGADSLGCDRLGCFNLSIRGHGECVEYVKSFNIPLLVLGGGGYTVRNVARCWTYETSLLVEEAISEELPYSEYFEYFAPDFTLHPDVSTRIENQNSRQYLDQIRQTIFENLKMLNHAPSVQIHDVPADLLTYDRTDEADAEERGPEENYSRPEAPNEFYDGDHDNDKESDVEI
- Sequence (Q9Y618 395-498 partner limits assumed): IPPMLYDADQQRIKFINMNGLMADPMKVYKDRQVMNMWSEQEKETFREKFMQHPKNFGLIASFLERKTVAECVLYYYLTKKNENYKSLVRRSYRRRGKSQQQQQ
- Measurement description: HDAC3 degradation in breast cancer cell lines, Western blot
- Format: cell-based
- Parameters: endogenous in cells; host or cells: MDA-MB-468, T47D, MCF7
- Reported conditions: T47D cells; read-out: DC50, HDAC3 degradation potency
Observed property: DC50

The examples below pair each entry with its known result.
[[record]]
molecule = "CCCNNC(=O)c1ccc(N2CCN(C(=O)CCCCCCCCC(=O)N[C@H](C(=O)N3C[C@H](O)C[C@H]3C(=O)N[C@@H](C)c3ccc(-c4scnc4C)cc3)C(C)(C)C)CC2)cc1 [Compound 27c]"
value_measured = "< 100 nM"

[[record]]
molecule = "CCCNNC(=O)c1ccc(N2CCN(CCCCCC(=O)N[C@H](C(=O)N3C[C@H](O)C[C@H]3C(=O)N[C@@H](C)c3ccc(-c4scnc4C)cc3)C(C)(C)C)CC2)cc1 [Compound 28a]"
value_measured = "< 100 nM"

[[record]]
molecule = "CCCNNC(=O)c1ccc(N2CCN(CCCCCCCCCC(=O)N[C@H](C(=O)N3C[C@H](O)C[C@H]3C(=O)N[C@@H](C)c3ccc(-c4scnc4C)cc3)C(C)(C)C)CC2)cc1 [Compound 28e]"
value_measured = "< 1000 nM"

[[record]]
molecule = "CCCNNC(=O)c1ccc(N2CCN(C(=O)CCCCCCC(=O)N[C@H](C(=O)N3C[C@H](O)C[C@H]3C(=O)N[C@@H](C)c3ccc(-c4scnc4C)cc3)C(C)(C)C)CC2)cc1 [Compound 27b]"
value_measured = "< 100 nM"

[[record]]
molecule = "CCCNNC(=O)c1ccc(N2CCN(CCCCCCCCC(=O)N[C@H](C(=O)N3C[C@H](O)C[C@H]3C(=O)N[C@@H](C)c3ccc(-c4scnc4C)cc3)C(C)(C)C)CC2)cc1 [Compound 28d]"
value_measured = "< 100 nM"


IN: What value of DC50 has been reported for the following molecule? CCCNNC(=O)c1ccc(N2CCN(C(=O)CCCCC(=O)N[C@H](C(=O)N3C[C@H](O)C[C@H]3C(=O)N[C@@H](C)c3ccc(-c4scnc4C)cc3)C(C)(C)C)CC2)cc1 [Compound 27a]
OUT: < 1000 nM

IN: What value of DC50 has been reported for the following molecule? CCCNNC(=O)c1ccc(N2CCN(CCCCCCC(=O)N[C@H](C(=O)N3C[C@H](O)C[C@H]3C(=O)N[C@@H](C)c3ccc(-c4scnc4C)cc3)C(C)(C)C)CC2)cc1 [Compound 28b]
OUT: < 100 nM
